target: L-lactate dehydrogenase A chain (Homo sapiens, UniProt P00338); test: Inhibition of human recombinant carboxy-terminal His-tagged LDHA by UV endpoint assay
measured.parameter: IC50

Fill in: IC50 of O=C1CC(c2ccccc2)CC(O)=C1SC1CCCCC1 (centres undefined) is ___ > 100 µM

Also need NC(=O)c1cccc(SC2=C(O)CC(c3ccccc3)CC2=O)c1 (centres undefined) , thanks. > 100 µM

Queued: O=C1CC(c2ccccc2)CC(O)=C1SCc1cccc(C(F)(F)F)c1 (centres undefined) > 100 µM

Next compound up: COc1ccc(SC2=C(O)CC(c3ccccc3)CC2=O)cc1 (centres undefined) > 100 µM

Again, but for N#Cc1ccccc1SC1=C(O)CC(c2cccc(Cl)c2)CC1=O (centres undefined) 6.8 µM

Record: Nc1cccc(SC2=C(O)CC(c3ccccc3)CC2=O)c1 (centres undefined) > 100 µM

Now give it for O=C1CC(c2ccccc2)CC(O)=C1Sc1ccccc1CO (centres undefined) too. 36 µM

Thanks! And N#Cc1ccccc1SC1=C(O)CC(c2c(Cl)cccc2C(F)(F)F)CC1=O (centres undefined) ? 0.64 µM

Likewise for Cc1cccc(SC2=C(O)CC(c3ccccc3)CC2=O)c1 (centres undefined) ? > 100 µM

Request: O=C1CC(c2c(C(F)(F)F)cccc2C(F)(F)F)CC(O)=C1Sc1ccccc1Cl (centres undefined) 15 µM

Would you kindly repeat that for CC(C)SC1=C(O)CC(c2ccccc2)CC1=O (centres undefined) ? > 100 µM

Follow-up entry: Cc1ccnc(SC2=C(O)CC(c3ccccc3)CC2=O)n1 (centres undefined) > 100 µM

What about this compound? COc1cccc(SC2=C(O)CC(c3ccccc3)CC2=O)c1 (centres undefined) > 100 µM

Now consider O=C1CC(c2ccccc2)CC(O)=C1Sc1cc(Cl)cc(Cl)c1 (centres undefined) . > 100 µM

For O=C1CC(c2ccccc2)CC(O)=C1Sc1ccc(C(F)(F)F)cc1 (centres undefined) then? > 100 µM

Follow-up item: N#Cc1ccccc1SC1=C(O)CC(c2c(Cl)cccc2Br)CC1=O (centres undefined) 0.45 µM

And O=C1CC(c2ccccc2)CC(O)=C1Sc1ccccc1Cl (centres undefined) ? 4.6 µM

Proceed to COc1ccc(CSC2=C(O)CC(c3ccccc3)CC2=O)cc1 (centres undefined) > 100 µM

Moving on to CCc1ccc(SC2=C(O)CC(c3ccccc3)CC2=O)cc1 (centres undefined) > 100 µM

Could you do the same for COC(=O)CSC1=C(O)CC(c2ccccc2)CC1=O (centres undefined) , please? > 100 µM

Quick one: Cc1cccc(CSC2=C(O)CC(c3ccccc3)CC2=O)c1 (centres undefined) > 100 µM

Try this compound too: Cc1ccc2nc(SC3=C(O)CC(c4ccccc4)CC3=O)[nH]c2c1 (centres undefined) > 100 µM

Then what about the compound O=C1CC(c2ccccc2)CC(O)=C1Sc1ccc(Cl)cc1 (centres undefined) ? > 100 µM

Another compound to check: O=C1CC(c2ccccc2)CC(O)=C1Sc1ccccc1C(=O)O (centres undefined) > 100 µM

====

test: Aqueous solubility of the compound in PBS buffer at pH 7.2; assay type: physicochemical
measured.parameter: solubility
In your response, put the unit directly after the numeric value.

Quick one: solubility for O=C1CC(c2c(Cl)cccc2C(F)(F)F)CC(O)=C1Sc1ccccc1Cl (configuration not stated) ? 117 µM

And for N#Cc1ccccc1SC1=C(O)CC(c2ccccc2)CC1=O (configuration not stated) ? 118 µM

// repeat for N#Cc1ccccc1SC1=C(O)CC(c2c(Cl)cccc2Cl)CC1=O (configuration not stated) and report 117 µM

Now try O=C1CC(c2c(C(F)(F)F)cccc2C(F)(F)F)CC(O)=C1Sc1ccccc1Cl (configuration not stated) . 143 µM

Follow-up entry: O=C1CC(c2c(Cl)cccc2Cl)CC(O)=C1Sc1ccccc1Cl (configuration not stated) 128 µM

Try this compound next: O=C1CC(c2ccccc2)CC(O)=C1Sc1ccccc1Cl (configuration not stated) 147 µM

// repeat for N#Cc1ccccc1SC1=C(O)CC(c2c(Cl)cccc2Br)CC1=O (configuration not stated) and report 75 µM
